# Tested on: Fibroblast
# PROCEDURE TEXT: Incucyte cell viability with human fibroblast; also: unitless GR value; below 1 slowed growth and below 0 cell loss
# Format: toxicity, cell-based
# TEST CONDITIONS: 6 h, 10 µM, compound concentration 10 uM, replicate number 1
Field: label. Allowed values: rule met (Growth Rate < 0.6) or rule not met (Growth Rate >= 0.6).

Record COCCNc1cc(NC(=O)N2CCCc3cc(CN4CCOCC4=O)c(C=O)nc32)ncc1C#N : is its Growth Rate strictly below 0.6?
rule not met

***
Record COc1cc2ncnc(Nc3ccc(F)c(Cl)c3)c2cc1OCCN(C)C[C@H](C)O : is its Growth Rate strictly below 0.6?
rule met

Record CCOC(=O)c1c(/C(C#N)=C\N)c2ccc(Cl)c(Cl)c2n1C : is its Growth Rate strictly below 0.6?
rule met

Record COc1cc2nc(-c3cc(F)ccc3O)nc(N[C@@H]3CNC[C@H]3C(C)(C)O)c2cc1OC.Cl.Cl : is its Growth Rate strictly below 0.6?
rule met

Record N#Cc1ccc(C#CC[C@@H](C#N)NC(=O)[C@@H]2CCCCN2)cc1F : is its Growth Rate strictly below 0.6?
rule not met

Record CCO[C@@H](Cc1ccc(OCCc2ccc(OS(C)(=O)=O)cc2)cc1)C(=O)O : is its Growth Rate strictly below 0.6?
rule not met

Reference for the values: ChEMBL document CHEMBL5303304
